B1: LINE1-mini (parent)
chain: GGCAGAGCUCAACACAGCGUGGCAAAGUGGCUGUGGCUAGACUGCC

# Variants of: B1
# procedure-details: self-cleavage, relative activity (ratio to wild type); higher = more cleavage; in vitro, sequencing; the parent is a self-cleaving ribozyme
Here the recorded self-cleavage is given for each entry.

Look over these answered cases.
# alteration, self-cleavage
records = [
    ("G29A G33C", 0.06),
    ("U28G C45G", 0.27),
    ("C8A C23U", 0.27),
]

Could you please provide reported self-cleavage for G7U C37A ? Thanks!
0.05

Could you please provide reported self-cleavage for A12C C23U ? Thanks!
0.08

Could you please provide reported self-cleavage for C8A C46A ? Thanks!
0.35

Could you please provide reported self-cleavage for U34C U43C ? Thanks!
0.04

Could you please provide reported self-cleavage for A4G G30U ? Thanks!
0.45

Could you please provide reported self-cleavage for G30U C37A ? Thanks!
0.08

Could you please provide reported self-cleavage for C15A G30A ? Thanks!
0.06

Could you please provide reported self-cleavage for G5U A16G ? Thanks!
0.06

Could you please provide reported self-cleavage for C18A U20G ? Thanks!
0.61

Could you please provide reported self-cleavage for C18U G36C ? Thanks!
0.06

Could you please provide reported self-cleavage for G21C C46G ? Thanks!
0.51

Could you please provide reported self-cleavage for A4C C18A ? Thanks!
0.07

Could you please provide reported self-cleavage for G30A C45G ? Thanks!
0.4

Could you please provide reported self-cleavage for C10U A14U ? Thanks!
0.14
